Taken from paper PMC11945475.

experiment.summary: in vivo
test.conditions: male, Sprague-Dawley, rat, inhaled or intranasal, 0.8 mg/kg, nasal CS-OA NE, Fer-Me 0.4 mg/kg and eugenol 0.8 mg/kg, read-out: AUC in CSF (converted)

- record.smiles: "C=CCc1ccc(O)c(OC)c1"
  AUC / ng·h/mL: 1060

###

experiment.summary: in vivo
test.conditions: male, Sprague-Dawley, rat, inhaled or intranasal, 0.8 mg/kg, nasal CS-OA NE, Fer-Me 0.4 mg/kg and eugenol 0.8 mg/kg, read-out: Cmax in CSF

- molecule: "C=CCc1ccc(O)c(OC)c1 [eugenol]"
  readout.unit: "ng/mL"
  Cmax: 1050

###

experiment.summary: in vivo
test.conditions: male, Sprague-Dawley, rat, inhaled or intranasal, 0.8 mg/kg, nasal CS-OA NE, Fer-Me 0.4 mg/kg and eugenol 0.8 mg/kg, read-out: Tmax in CSF (converted)

- record.smiles: "C=CCc1ccc(O)c(OC)c1"
  Tmax / min: 20

###

experiment.summary: in vivo
test.conditions: male, Sprague-Dawley, rat, inhaled or intranasal, 0.8 mg/kg, nasal CS-OA NE, Fer-Me 0.4 mg/kg and eugenol 0.8 mg/kg, read-out: Cmax in the bloodstream

- record.smiles: "C=CCc1ccc(O)c(OC)c1"
  readout.unit: "ng/mL"
  Cmax: 150

###

experiment.summary: in vivo
test.conditions: male, Sprague-Dawley, rat, inhaled or intranasal, 0.8 mg/kg, nasal CS-OA NE, Fer-Me 0.4 mg/kg and eugenol 0.8 mg/kg, read-out: Tmax in the bloodstream (converted)

- compound: "C=CCc1ccc(O)c(OC)c1 [eugenol]"
  Tmax: "40 min"
